# assayedTarget: S. aureus DltA (Staphylococcus aureus (strain NCTC 8325 / PS 47), UniProt Q2FZW6)
# protocolNotes: in vitro DltA activity assay (luminescence), S. aureus DltA
# Format: biochemical
# conditionContext: recombinant DltA, 30 min pre-incubation, 0.5 mM D-Alanine, 0.5-5 μM ATP; read-out: S. aureus DltA IC50
pIC50: −log10 of the molar value.
Parameter threshold = 8. Response is Fulfilled when pIC50 meets or exceeds it, else Not fulfilled.

Consider the worked cases shown below.
Query: Would you say CCn1cnc2cc(-c3cc(N(C)CCN(C)C)c(C(N)=O)c4[nH]cnc34)cc(F)c21 [Example 227] shows pIC50 at minimum 8?
Reply: Not fulfilled

Query: Would you say CCn1cnc2cc(-c3nc(N(C)CCN(C)C)c(C(N)=O)c4[nH]cnc34)ccc21 [Example 200] shows pIC50 at minimum 8?
Reply: Not fulfilled

Query: Would you say N#Cc1c(N2CCC(CO)(CO)CC2)cc(-c2ccc3c(c2)ncn3C2CCCCC2)c2nc[nH]c12 [Example 61] shows pIC50 at minimum 8?
Reply: Not fulfilled

Query: Would you say N#Cc1c(N2CC[C@H](CO)C2)cc(-c2ccc3c(c2)ncn3C2CCCCC2)c2nc[nH]c12 [Example 58] shows pIC50 at minimum 8?
Reply: Not fulfilled

Query: Would you say c1nc2c(-c3ccc4c(c3)ncn4C3CCCCC3)cc(N3CC4CNCC4C3)nc2[nH]1 (stereo not shown) [Example 11] shows pIC50 at minimum 8?
Reply: Fulfilled

Query: Would you say CN(CCO)c1cc(-c2ccc3c(c2)ncn3C2CCCCC2)c2nc[nH]c2c1C#N [Example 92] shows pIC50 at minimum 8?
Reply: Not fulfilled

---
Query: Would you say CN(CCN1CCCC1)c1cc(-c2ccc3c(c2)ncn3C2CCCCC2)c2nc[nH]c2c1C(N)=O [Example 127] shows pIC50 at minimum 8?
Reply: Not fulfilled

Query: Would you say C[C@H]1CCCC(n2cnc3cc(-c4cc(N(C)CCN(C)C)c(C(N)=O)c5[nH]cnc45)ccc32)C1 (mixture of isomers) [Example 136] shows pIC50 at minimum 8?
Reply: Fulfilled

Query: Would you say CN(C)CCN(C)c1cc(-c2ccc3scnc3c2)c2nc[nH]c2c1C(N)=O [Example 134] shows pIC50 at minimum 8?
Reply: Not fulfilled

Query: Would you say CN(CCO)c1cc(-c2ccc3c(c2)ncn3C2CCCCC2)c2nc[nH]c2c1C(N)=O [Example 117] shows pIC50 at minimum 8?
Reply: Not fulfilled

Query: Would you say NC(=O)c1c(N2CC[C@H](CO)C2)cc(-c2ccc3c(c2)ncn3C2CCCCC2)c2nc[nH]c12 [Example 64] shows pIC50 at minimum 8?
Reply: Not fulfilled
